# System: 616215-338-R-J1-PDC complex spheroid growth, % test/control
# Procedure Text: Anticancer human tumor 616215-338-R-J1-PDC patient-derived colon adenocarcinoma cell line growth inhibition [Asc]; active = viability on the fitted dose curve at most 10% of control; inactive = the rest
# Stated Conditions: second compound 1 µM; first compound 0.949 µM
# Excerpt: Multicellular complex tumor spheroid response to apoptosis pathway targeting inhibitors Alrizomadlin, Pelcitoclax, and Dasminapant in combination with a variety of drugs and investigational agents in selected tumor cell lines […] Compounds. […] If the clinical Cmax for an agent had not been determined, the highest concentration tested was 10 microM. […]
Reply using exactly one outcome from 1 for active, 0 for inactive

Incoming: Look up the recorded call for Cc1nc(N2CCC3(CC2)COC(C)C3N)c(CO)nc1Sc1ccnc(N)c1Cl (centres undefined) + Cc1c(S(C)(=O)=O)c(-c2cc(F)cc(N3CCN(c4ccc(NS(=O)(=O)c5ccc(NC(CCN6CCC(C(=O)OCCCP(=O)(O)O)CC6)CSc6ccccc6)c(S(=O)(=O)C(F)(F)F)c5)cc4)CC3)c2)c(-c2ccc(Cl)cc2)n1C(C)C in this test.
Outgoing: 0

Incoming: Call for entry CCN1C(C(=O)NC23CCC(C(=O)O)(CC2)CC3)C(c2cccc(Cl)c2F)C2(C(=O)Nc3cc(Cl)ccc32)C12CCCCC2 (centres undefined) + CNC(C)C(=O)NC1CN(S(=O)(=O)c2cccc(S(=O)(=O)N3CCC4CCC(C(=O)NC(c5ccccc5)c5ccccc5)N4C(=O)C(NC(=O)C(C)NC)C3)c2)CCC2CCC(C(=O)NC(c3ccccc3)c3ccccc3)N2C1=O :
Outgoing: 0

Incoming: Can you look up the reported call for CCN1C(C(=O)NC23CCC(C(=O)O)(CC2)CC3)C(c2cccc(Cl)c2F)C2(C(=O)Nc3cc(Cl)ccc32)C12CCCCC2 (centres undefined) + Cc1c(S(C)(=O)=O)c(-c2cc(F)cc(N3CCN(c4ccc(NS(=O)(=O)c5ccc(NC(CCN6CCC(C(=O)OCCCP(=O)(O)O)CC6)CSc6ccccc6)c(S(=O)(=O)C(F)(F)F)c5)cc4)CC3)c2)c(-c2ccc(Cl)cc2)n1C(C)C for me?
Outgoing: 1

Incoming: Test call, this compound: Cc1nc(N2CCC3(CC2)COC(C)C3N)c(CO)nc1Sc1ccnc(N)c1Cl (centres undefined) + CNC(C)C(=O)NC1CN(S(=O)(=O)c2cccc(S(=O)(=O)N3CCC4CCC(C(=O)NC(c5ccccc5)c5ccccc5)N4C(=O)C(NC(=O)C(C)NC)C3)c2)CCC2CCC(C(=O)NC(c3ccccc3)c3ccccc3)N2C1=O
Outgoing: 0

###

# System: 616215-338-R-J1-PDC complex spheroid growth, % test/control
# Procedure Text: Anticancer human tumor 616215-338-R-J1-PDC cell line growth inhibition [Asc];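 also: spheroids exposed to agents for seven days before readout; 100% = DMSO vehicle control viability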
# Stated Conditions: second compound 0.1 µM; first compound 0.01 µM; active compounds read low
Answer each item with its documented viability, T/C.
Report as a plain number; the unit % is understood.

Incoming: Give a short answer stating reported viability, T/C for CNC(C)C(=O)NC1CN(S(=O)(=O)c2cccc(S(=O)(=O)N3CCC4CCC(C(=O)NC(c5ccccc5)c5ccccc5)N4C(=O)C(NC(=O)C(C)NC)C3)c2)CCC2CCC(C(=O)NC(c3ccccc3)c3ccccc3)N2C1=O (centres undefined) + Cc1c(S(C)(=O)=O)c(-c2cc(F)cc(N3CCN(c4ccc(NS(=O)(=O)c5ccc(NC(CCN6CCC(C(=O)OCCCP(=O)(O)O)CC6)CSc6ccccc6)c(S(=O)(=O)C(F)(F)F)c5)cc4)CC3)c2)c(-c2ccc(Cl)cc2)n1C(C)C .
Outgoing: 99.3

Incoming: State its viability, T/C for this molecule: O=C(c1ccc(F)c(F)c1Nc1ccc(I)cc1F)N1CC(O)([C@@H]2CCCCN2)C1 + Cc1c(S(C)(=O)=O)c(-c2cc(F)cc(N3CCN(c4ccc(NS(=O)(=O)c5ccc(NC(CCN6CCC(C(=O)OCCCP(=O)(O)O)CC6)CSc6ccccc6)c(S(=O)(=O)C(F)(F)F)c5)cc4)CC3)c2)c(-c2ccc(Cl)cc2)n1C(C)C
Outgoing: 91.7

Incoming: Fill in reported viability, T/C for this entry: NC1CCC(NC2CC2c2ccccc2)CC1 (centres undefined) + CNC(C)C(=O)NC1CN(S(=O)(=O)c2cccc(S(=O)(=O)N3CCC4CCC(C(=O)NC(c5ccccc5)c5ccccc5)N4C(=O)C(NC(=O)C(C)NC)C3)c2)CCC2CCC(C(=O)NC(c3ccccc3)c3ccccc3)N2C1=O
Outgoing: 99

Incoming: Identify measured viability, T/C corresponding to COc1c(OCCCN2CCOCC2)ccc2c3n(c(=NC(=O)c4cnc(N)nc4)nc12)CCN3 + CNC(C)C(=O)NC1CN(S(=O)(=O)c2cccc(S(=O)(=O)N3CCC4CCC(C(=O)NC(c5ccccc5)c5ccccc5)N4C(=O)C(NC(=O)C(C)NC)C3)c2)CCC2CCC(C(=O)NC(c3ccccc3)c3ccccc3)N2C1=O
Outgoing: 92.4
